Target: T1, 14-3-3γ-R57C-nLuc (human, UniProt P61981 2-247, R57C)
T1 sequence: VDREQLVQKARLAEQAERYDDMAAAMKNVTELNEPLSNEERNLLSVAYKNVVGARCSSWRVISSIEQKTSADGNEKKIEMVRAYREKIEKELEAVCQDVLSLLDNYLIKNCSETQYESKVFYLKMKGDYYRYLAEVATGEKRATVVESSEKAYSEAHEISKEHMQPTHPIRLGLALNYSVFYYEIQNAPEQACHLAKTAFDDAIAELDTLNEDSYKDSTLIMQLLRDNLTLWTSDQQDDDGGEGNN
Experiment: DMSO; apparent, Bmax set to wild-type
Primed or numbered codes have the meaning given here. Where no end group is shown, it is not given here. [ ]: non-standard residue; d: D form. FITC′ = fluorescein isothiocyanate label at the N-terminus; pS = N[C@@H](COP(=O)(O)O)C(=O)O
ASSAY_ENDPOINT: Kd
Write the numeric value and append its unit.

Data request: Would you mind telling me what Kd value was observed for {FITC′}-QRHSN[pS]LGPIFDGSGGGSGIKARAS[pS]SPVILVGTHLD (leucine-rich repeat kinase 2 (LRRK2), human; also called FITC-LRRK2; source: synthetic peptide (AbClonal)) [FITC-ppLRRK2] ?
Data returned: 431 nM
